- Test system: GH secretion
- Protocol Description: Evaluation of suppression of growth hormone (GH) secretion using rats (GHRH-induced)
- Assay type: in vivo
- Condition Parameters: Rattus norvegicus, 5 min, oral, dosage of 1 mg/kg, GHRH given 8 hours after dosing, blood GH 5 minutes after GHRH
- Description: A medium (distilled water (Otsuka distilled water, Otsuka Pharmaceutical Factory, Inc.)) or a test compound dissolved in the medium was orally administered to rats (7-week old male Crl:CD(SD) IGS rats (Charles River Laboratories Japan, Inc.)) and after 7 hours and 57 minutes, the animals were administered with 50 mg/kg of pentobarbital sodium (Somnopentyl, Kyoritsu Seiyaku Corporation) via the tail vein for anaesthesia. […]
# key: entry, value: inhibition in vivo at 1 mg/kg

{"columns": ["Smiles Representation", "inhibition in vivo at 1 mg/kg / %"],
 "data": [
  ["COC(=O)c1cc(F)cc2nc(-c3cncc(-c4cc(F)ccc4F)c3N3CC[C@@H](N)[C@@H](O)C3)[nH]c12", 67],
  ["CCN[C@@H]1CCN(c2c(-c3cc(F)cc(F)c3)cnc(C)c2-c2nc3cc(F)c(OC)cc3[nH]2)C[C@@H]1O", 71],
  ["COC(=O)c1cc(F)cc2nc(-c3c(C)ncc(-c4cc(F)cc(Cl)c4)c3N3CC[C@@H](N)[C@@H](O)C3)[nH]c12", 76],
  ["CCN[C@@H]1CCN(c2c(-c3nc4cc(F)c(F)cc4[nH]3)cncc2-c2cc(F)ccc2F)C[C@@H]1O", 90],
  ["CCN[C@@H]1CCN(c2c(-c3cc(F)cc(F)c3)cnc(C)c2-c2nc3cc(F)c(F)c(F)c3[nH]2)C[C@@H]1O", 66],
  ["Cc1ncc(-c2cc(F)cc(Cl)c2)c(N2CC[C@@H](NC3COC3)[C@@H](O)C2)c1-c1nc2cc(F)c(F)cc2[nH]1", 83]
]}

---

- System: Chinese hamster lung-derived CHL/IU cells
- Protocol Description: Evaluation of phospholipidosis induction ability using cultured cell line (NBD-PE incorporation)
- Assay type: cell-based
- Condition Parameters: 24 hours, positive = 25% or more of amiodarone maximum reaction at cell viability 50% or more
# key: entry, value: concentration at which judged to be positive in phospholipidosis induction ability
Assay Metric: concentration at which judged to be positive in phospholipidosis induction ability (µM)

{"columns": ["Smiles Representation", "Inequality Sign", "Measurement"],
 "data": [
  ["COc1ccc2nc(-c3cncc(-c4cc(F)ccc4F)c3N3CC[C@@H](N)[C@@H](O)C3)[nH]c2c1", "=", 25],
  ["COC(=O)c1cc(F)cc2nc(-c3c(N4CCOCC4)ncc(-c4cc(F)cc(F)c4)c3N3CC[C@@H](N)[C@@H](O)C3)[nH]c12", "=", 50],
  ["COC(=O)c1cc(F)cc2nc(-c3c(C)ncc(-c4cc(F)cc(Cl)c4)c3N3CC[C@@H](N)[C@@H](O)C3)[nH]c12", "=", 12.5],
  ["N[C@@H]1CCN(c2c(-c3cc(F)cc(F)c3)cncc2-c2nc3ccccc3[nH]2)C[C@@H]1O", "=", 25],
  ["COC(=O)c1cc(F)cc2nc(-c3cncc(-c4cc(F)ccc4F)c3N3CC[C@@H](N)[C@@H](O)C3)[nH]c12", "=", 25],
  ["N[C@@H]1CCN(c2c(-c3cc(F)cc(F)c3)cncc2-c2nc3cc(F)c(F)cc3[nH]2)C[C@@H]1O", "≥", 12.5]
]}
